# Tested on: A498 renal
# test_protocol: NCI-60 one-dose screen, 48 h
# assay_conditions: 10 µM unless noted
About 83,000 compounds went through this panel and 20% of them were active in at least one assay; those are over-represented in the sample as a whole. Calls of active or inactive are those of the source. The calls were made as follows: active = growth percent below 10; inactive = the rest.
Outcome codes: 1 (active), 0 (inactive)

structure: COc1ccc(N(C)c2nc(Cl)nc3cnn(C)c23)cc1
measured_target: A498 renal
discrete_label: 1
--
structure: CCCc1nc2ccccn2c1Nc1ccc(C(=O)NO)cc1
measured_target: A498 renal
discrete_label: 0
--
structure: CCN(CC)c1ccc(Nc2ccc(CC(=O)c3ccccc3)cc2)cc1
measured_target: A498 renal
discrete_label: 0
--
structure: Nc1c(-c2nc3ccccc3c(=O)[nH]2)nnn1-c1ccc(Cl)cc1
measured_target: A498 renal
discrete_label: 0
--
structure: CCCCCCNC(=O)c1cc(NCc2cc(O)ccc2O)ccc1O
measured_target: A498 renal
discrete_label: 0
--
structure: Cc1nn(Cc2ccccc2)cc1C(=O)Nc1sc2c(c1C(N)=O)CCC(=O)C2
measured_target: A498 renal
discrete_label: 0

---

# Tested on: CAKI-1 renal
# test_protocol: NCI-60 one-dose screen, 48 h
# assay_conditions: 10 µM unless noted
This is part of a sample that, as a whole, favours compounds with a hit. Of some 83,000 tested, about 20% had one in any assay. Active and inactive are the calls of the source. The calls were made as follows: active = growth percent below 10; inactive = the rest.
Outcome codes: yes (1) = active, no (0) = inactive

compound: Cc1nn(-c2ccccc2)c2c1C(c1ccc([N+](=O)[O-])cc1)C(C#N)=C(N)O2 (stereo not drawn)
discrete_label: no (0)

compound: CC1(C)N=C(N)N=C(N)N1c1ccc(Cl)c(Cl)c1
discrete_label: no (0)

compound: O=C1Nc2ccccc2/C1=N/N=C/c1ccc(OC2OC(CO)C(O)C(O)C2O)cc1 (stereo not drawn)
discrete_label: no (0)

compound: COc1ccc(C(=O)/C=C/C23c4ccccc4C(c4ccccc42)C2C(=O)NC(=O)C23)cc1 (stereo not drawn)
discrete_label: no (0)

compound: Nc1c(C(=O)c2ccccc2)nnc2ncnn12
discrete_label: no (0)

compound: O=C(NCCN1CCC(O)CC1)c1cc2c(o1)C(=O)c1ccccc1C2=O
discrete_label: yes (1)

compound: Cc1cc2c(F)c(Oc3ncnc(Nc4ccc(N5C[C@@H](C)N[C@@H](C)C5)cc4)c3C#N)cc(F)c2[nH]1
discrete_label: no (0)

compound: COc1cc2oc(-c3cccc(C(=O)Nc4ccc(C#N)cc4)c3)cc(=O)c2c(O)c1OC
discrete_label: no (0)

compound: Cc1[nH]c(-c2nc3ccccc3[nH]2)c(C)c1C(=O)N1CCOCC1
discrete_label: no (0)

compound: O=[N+]([O-])c1ccccc1C(O)Cc1ccc2ccccc2n1 (stereo not drawn)
discrete_label: no (0)

compound: CCOC(=O)C(O)C(O)(c1ccccc1)c1ccccc1 (stereo not drawn)
discrete_label: no (0)

compound: CC(C)c1ccc(C(=O)OC(=O)c2ccc(C(C)C)cc2)cc1
discrete_label: no (0)

compound: CCCCN1CCN(c2ccc3nc(-c4ccc5nc(-c6ccc(OCC)c(OCC)c6)[nH]c5c4)[nH]c3c2)CC1
discrete_label: no (0)

compound: O=C1Nc2ccccc2/C1=N/N=C/c1ccsc1
discrete_label: no (0)

compound: O=C(NCCOCCOCCNc1cccc2c1C(=O)N(C1CCCNC1=O)C2=O)c1cc2c(o1)C(=O)c1ccccc1C2=O (stereo not drawn)
discrete_label: yes (1)

compound: Nc1c(-c2nc3ccc(Br)cc3c(=O)[nH]2)nnn1-c1ccccc1
discrete_label: no (0)

compound: CCN(CC)CCOc1ccc(/C(=C(\C)c2ccc(OC)c(F)c2)c2ccc(Cl)cc2)cc1
discrete_label: no (0)

compound: C[C@@H]1CC[C@@H]2[C@@H]1[C@H](OC(=O)/C=C/c1ccccc1)[C@]1(CCCOCCOCCOCCOC(=O)CCCC[C@@H]3SC[C@@H]4NC(=O)N[C@@H]43)C[C@@H](OC(=O)CO)[C@@]2(C)O1
discrete_label: no (0)

---

# Test system: MCF7 breast
# test_protocol: NCI-60 one-dose screen, 48 h
# assay_conditions: 10 µM unless noted
This is part of a sample that, as a whole, favours compounds with a hit. Of some 83,000 tested, about 20% had one in any assay. Activity calls are given as the source filed them. The calls were made as follows: active = growth percent below 10; inactive = the rest.
Outcome codes: label 1 for active, label 0 for inactive

structure: CS(=O)(=O)c1ccc(-c2nc3cc(Cl)ccc3n2CC(=O)NO)cc1
discrete_label: label 0

structure: CCCCNC(=O)c1cc(NCc2cc(O)ccc2O)ccc1O
discrete_label: label 0

structure: NS(=O)(=O)c1cnccc1-n1ccc(=O)c(S(N)(=O)=O)c1
discrete_label: label 0

structure: COc1cc2c(=O)n(CCCn3ccnc3)c3c4cc5c(cc4ccc3c2cc1OC)OCO5
discrete_label: label 1

---

# Tested on: OVCAR-8 ovarian
# test_protocol: NCI-60 one-dose screen, 48 h (100 = growth as untreated, 0 = no growth, -100 = all killed)
# assay_conditions: 10 µM unless noted
Compounds without any hit were thinned out: in the full panel of roughly 83,000, 20% have a hit.
Below, each of the compounds is paired with its reported growth value.

compound: CN(C)S(=O)(=O)n1cnc([C@@H]2[C@@H]3C(=O)OC[C@@H]3C[C@]23N=CN(Cc2ccccc2)C3=O)c1
unit_abbrev: %
growth: 107
--
compound: NC(N)=N/N=C(/c1ccccc1)c1ccc(N)cc1
unit_abbrev: %
growth: 108
--
compound: COc1cccc(/C=C2\COc3ccc(O)cc3C2=O)c1OC
unit_abbrev: %
growth: 69
--
compound: C=C1c2c(C)nn(-c3ccc(S(N)(=O)=O)cc3)c2N(C)C23CC1C1(C)c4c(C)nn(-c5ccc(S(N)(=O)=O)cc5)c4N(C)C(C)(CC12)C3 (centres undefined)
unit_abbrev: %
growth: 40.1

---

# Tested on: A549/ATCC NSCLC
# test_protocol: NCI-60 one-dose screen, 48 h (100 = growth as untreated, 0 = no growth, -100 = all killed)
# assay_conditions: 10 µM unless noted
About 83,000 compounds went through this panel and 20% of them were active in at least one assay; those are over-represented in the sample as a whole.
Below, each of the compounds is paired with its reported growth value.

compound: C[C@@H]1CC[C@@H]2[C@@H]1[C@H](OC(=O)/C=C/c1ccccc1)[C@]1(CCCOCCOCCOCCOC(=O)CCCC[C@@H]3SC[C@@H]4NC(=O)N[C@@H]43)C[C@@H](OC(=O)CO)[C@@]2(C)O1
growth (%): 97.7
--
compound: CN(C)CCN1C(=O)c2cccc3c(-c4ccc(-c5nc6c7ccccc7c7ccccc7c6[nH]5)cc4)ccc(c23)C1=O
growth (%): 90.4
--
compound: CCOC(=O)c1c(C)nc2c(c1N)/C(=C/c1cc(OC)c(OC)c(OC)c1)C(=O)N2c1ccc(OC)cc1
growth (%): 88.8
--
compound: C=CCO[C@H]1CO[C@H]2[C@@H]1OC[C@@H]2Oc1ccc(Nc2ccnc(Nc3ccc(O[C@H]4CO[C@H]5[C@@H]4OC[C@@H]5OCC=C)c(Cl)c3)n2)cc1Cl
growth (%): -60.7
--
compound: O=C(Oc1ccc([N+](=O)[O-])cc1)c1ccc(CBr)cc1
growth (%): 97.9
--
compound: O=C1NC(=S)S/C1=C\N1N=C(c2ccc(Cl)cc2)CC1c1ccc(F)cc1 (centres undefined)
growth (%): 84.1
--
compound: COc1cc(/C=C/C(=O)c2cccc(-n3cc(-c4ccc(Cl)cc4)[nH]c3=O)c2)cc(OC)c1OC
growth (%): 88.6
--
compound: COc1cc2oc3cc(C)oc(=O)c3c2cc1OC
growth (%): 87.7
--
compound: CN1CCN(C2=C(Cl)C(=O)c3ccccc3C2=O)CC1
growth (%): 81.4

---

# Tested on: 786-0 renal
# test_protocol: NCI-60 one-dose screen, 48 h
# assay_conditions: 10 µM unless noted
This is part of a sample that, as a whole, favours compounds with a hit. Of some 83,000 tested, about 20% had one in any assay. The source made the active and inactive calls. How the source made its calls: active means growth percent below 10; inactive means the rest.
Outcome codes: T = active, F = inactive

compound: Cc1[nH]c(-c2nc3ccccc3[nH]2)c(C)c1C(=O)N1CCOCC1
measured_target: 786-0 renal
discrete_label: F
//
compound: c1ccc2c(c1)ncn2-c1nc2ccccc2n2c1nc1ccccc12
measured_target: 786-0 renal
discrete_label: F
//
compound: O=c1[nH]c(=O)n(C2CC(O)C(CO)O2)cc1CO (stereo not drawn)
measured_target: 786-0 renal
discrete_label: T

---

# System: HS 578T breast
# test_protocol: NCI-60 one-dose screen, 48 h
# assay_conditions: 10 µM unless noted
This is part of a sample that, as a whole, favours compounds with a hit. Of some 83,000 tested, about 20% had one in any assay. Calls of active or inactive are those of the source. How the source made its calls: active means growth percent below 10; inactive means the rest.
Outcome codes: active, inactive

structure: Cl.Fc1c[c-]c(-c2ccccn2)c(F)c1.[Pt].c1ccc([PH+](c2ccccc2)c2ccccc2[PH+](c2ccccc2)c2ccccc2)cc1
discrete_label: active
//
structure: CN=C1C=CC(=C(c2ccc(N(C)C)cc2)c2ccc(N(C)C)cc2)C=C1
discrete_label: inactive
//
structure: CSc1nc2sc3cc(Cl)ccc3n2c(=N)c1C#N
discrete_label: inactive
//
structure: Cc1cc(C)on1
discrete_label: inactive
